Recorded values, source PubChem BioAssay (NCI).

Test system: NCI/ADR-RES ovarian
Assay: NCI tumour cell line growth inhibition, 48 h
Label FALSE if TGI falls below 50 µM; label TRUE in every other case.

Worked cases, answers included:
In: Does O=[N+]([O-])c1ccc(Br)c([N+](=O)[O-])c1 have a reported TGI of at least 50 µM?
Out: FALSE

In: Please do the same for C=CCc1cc(-c2cc(CC=C)c(O)c(CN(CCCl)CCCl)c2)cc(CN(CCCl)CCCl)c1O as well.
Out: TRUE

In: Please do the same for CN(C)c1ccc(/C=C2/SC(=S)NC2=O)cc1 as well.
Out: TRUE

In: Please do the same for CCOC(=O)c1ccc(Nc2nc3cc(C(F)(F)F)ccc3nc2-c2ccccc2)cc1 as well.
Out: TRUE

In: Please do the same for COc1ccc(N(C)S(=O)(=O)c2ccccc2)cc1 as well.
Out: TRUE

In: Please do the same for Nc1ccccc1CCCC(=O)O as well.
Out: TRUE

More entries:
In: Does CCc1n[nH]c(=S)n1/N=C\c1ccc(-c2ccccc2Cl)o1 have a reported TGI of at least 50 µM?
Out: TRUE

In: Please do the same for CCOC(=O)c1c(N)nn2c1cc1cccccc12 as well.
Out: TRUE

In: Please do the same for COc1ccc(-c2[nH]c3ccccc3c2C=C(C#N)C#N)cc1 as well.
Out: FALSE

In: Please do the same for CC(C)CNC(=O)CCc1cccc2c1oc1c(CCN)cccc12 as well.
Out: FALSE

----------
Test system: HCT-116 colon
Assay: NCI tumour cell line growth inhibition, 48 h
Below, each entry is listed with its recorded log10 of TGI.
Scale type: logarithmic (base 10). Underlying TGI unit: µM.

In: What measured log10 of TGI goes with CC(C)CNC(=O)CCc1cccc2c1oc1c(CCN)cccc12 ?
Out: 1.33

Now for another entry.
In: What measured log10 of TGI goes with COC(=O)/C=C/c1ccc2c(c1)CCC2 ?
Out: 1.99

----------
Tested on: TK-10 renal
Assay: NCI tumour cell line growth inhibition, 48 h
Readout Kind: TGI

Below, each entry is followed by its recorded TGI result.
In: What measured TGI goes with COC(=O)C1=C2CCC(=O)[C@@]2(C)C(OC(C)=O)C=CC1 (some centres not stated) ?
Out: > 100 µM

In: Please do the same for O=C(Nc1cc(C(=O)Nc2cccc(S(=O)(=O)O)c2)cc(C(=O)Nc2cccc(S(=O)(=O)O)c2)c1)c1cccc(C(=O)Nc2cc(C(=O)Nc3cccc(S(=O)(=O)O)c3)cc(C(=O)Nc3cccc(S(=O)(=O)O)c3)c2)c1 as well.
Out: > 100 µM

In: Please do the same for O=C1/C(=C/C=C/c2ccccc2)N=C(c2ccccc2)N1C1Nc2cc3c(cc2S1)NC(N1C(=O)/C(=C/C=C/c2ccccc2)N=C1c1ccccc1)S3 (configuration not stated) as well.
Out: > 100 µM

In: Please do the same for COc1ccc2nc(-c3cc(-c4cc(OC)c(OC)c(OC)c4)n[nH]3)[nH]c2c1 as well.
Out: 7.58 µM

In: Please do the same for COc1cc(N(CCC#N)CCC#N)ccc1/C=C1\SC(=S)NC1=O as well.
Out: > 100 µM

In: Please do the same for C=C(C)C1CC=C(C)[C@](O)(C2(O)C[C@H](C(=C)C)CC=C2C)C1 (some centres not stated) as well.
Out: > 100 µM

Now for another entry.
In: What measured TGI goes with C=CCc1cc(-c2cc(CC=C)c(O)c(CN(CCCl)CCCl)c2)cc(CN(CCCl)CCCl)c1O ?
Out: 38.8 µM
